The reported measurements were obtained from patent US20070020327A1.

target-or-system: HLA-A*0202 (human)
protocol-text: inhibition of 125I-labelled standard peptide binding to purified HLA-A*0202, gel filtration
quantity-name: binding affinity ratio (IC50 of standard peptide / IC50 of test peptide)
Give only the figure.

Task: Which value of binding affinity ratio (IC50 of standard peptide / IC50 of test peptide) has been reported for CTGAVPLI (modifications not checked) [CTGAVPLI (Kallikrein, position 14)] in the records?
Result: 0.0001

Task: Which value of binding affinity ratio (IC50 of standard peptide / IC50 of test peptide) has been reported for CARAYSEKV (modifications not checked) [… (Kallikrein, position 184)] in the records?
Result: 0.0006

Task: Which value of binding affinity ratio (IC50 of standard peptide / IC50 of test peptide) has been reported for CALPEKPA (modifications not checked) [CALPEKPA (Kallikrein, position 234)] in the records?
Result: -0.0001

Task: Which value of binding affinity ratio (IC50 of standard peptide / IC50 of test peptide) has been reported for CLKKNSQV (modifications not checked) [CLKKNSQV (Kallikrein, position 66)] in the records?
Result: 0.0006

Task: Which value of binding affinity ratio (IC50 of standard peptide / IC50 of test peptide) has been reported for CAGLWTGGKDT (modifications not checked) [… (Kallikrein, position 198)] in the records?
Result: 0.0003

Task: Which value of binding affinity ratio (IC50 of standard peptide / IC50 of test peptide) has been reported for AVYSHGWA (modifications not checked) [AVYSHGWA (Kallikrein, position 41)] in the records?
Result: 0.0005
